meta.source: patent US20140120095A1

Biological target: T1, recombinant human VEGF165 (human, UniProt P15692-4 27-191, biotinylated in the competition assays)
T1 construct: Bought protein; also called hVEGF165; rhVEGF165
T1 sequence (P15692 other isoform, or with tags, fused parts or gaps): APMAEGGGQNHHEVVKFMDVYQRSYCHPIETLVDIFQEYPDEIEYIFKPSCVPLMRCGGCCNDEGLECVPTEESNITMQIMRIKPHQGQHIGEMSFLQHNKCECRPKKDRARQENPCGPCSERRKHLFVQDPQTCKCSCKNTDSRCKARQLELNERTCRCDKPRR
Assay: AlphaScreen, hVEGF165/hVEGFR1-Fc competition
Listing: pIC50 of selected binders
// returns pIC50 (minus log10 of molar concentration), number only

Below are worked cases with known answers.
binder	endpoint-name	recorded-result
VEGFBII022 (VHH, not shown: small tags and cut ends, Bivalent (heterodimeric) anti-VEGF VHH; also called VEGFBII23B04-9GS-5B05) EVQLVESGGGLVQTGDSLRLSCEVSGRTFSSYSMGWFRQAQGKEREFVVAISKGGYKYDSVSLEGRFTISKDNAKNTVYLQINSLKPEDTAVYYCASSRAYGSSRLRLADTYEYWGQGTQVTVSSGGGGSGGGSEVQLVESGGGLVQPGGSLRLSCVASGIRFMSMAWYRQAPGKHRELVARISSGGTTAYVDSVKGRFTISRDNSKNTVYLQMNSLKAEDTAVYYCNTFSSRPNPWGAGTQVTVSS	pIC50	11.10
VEGFBII021 (VHH, not shown: small tags and cut ends, Bivalent (heterodimeric) anti-VEGF VHH; also called VEGFBII23B04-40GS-5B05) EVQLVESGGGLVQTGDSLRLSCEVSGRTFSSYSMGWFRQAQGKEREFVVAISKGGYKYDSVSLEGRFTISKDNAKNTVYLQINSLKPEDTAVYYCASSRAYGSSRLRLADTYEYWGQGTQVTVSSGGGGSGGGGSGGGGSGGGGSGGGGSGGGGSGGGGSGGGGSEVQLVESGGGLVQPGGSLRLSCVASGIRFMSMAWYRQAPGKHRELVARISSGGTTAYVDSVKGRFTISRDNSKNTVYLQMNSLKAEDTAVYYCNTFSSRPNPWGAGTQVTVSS	pIC50	10.80

Q) For the binder shown here, VEGFBII025 (VHH, not shown: small tags and cut ends, Bivalent anti-VEGF VHH; also called VEGFBII10E07-40GS-23B04) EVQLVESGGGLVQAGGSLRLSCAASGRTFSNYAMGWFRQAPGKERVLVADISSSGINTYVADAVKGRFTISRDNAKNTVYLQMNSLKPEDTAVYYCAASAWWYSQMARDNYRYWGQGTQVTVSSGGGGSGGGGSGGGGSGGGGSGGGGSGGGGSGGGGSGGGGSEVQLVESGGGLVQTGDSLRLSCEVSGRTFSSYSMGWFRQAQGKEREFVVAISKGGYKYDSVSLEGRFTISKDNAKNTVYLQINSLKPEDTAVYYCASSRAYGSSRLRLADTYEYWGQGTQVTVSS , give the reported pIC50.
A) 10.41

Q) What does the data say about its pIC50? Entry: VEGFBII024 (VHH, not shown: small tags and cut ends, Bivalent anti-VEGF VHH; also called VEGFBII23B04-40GS-86H09) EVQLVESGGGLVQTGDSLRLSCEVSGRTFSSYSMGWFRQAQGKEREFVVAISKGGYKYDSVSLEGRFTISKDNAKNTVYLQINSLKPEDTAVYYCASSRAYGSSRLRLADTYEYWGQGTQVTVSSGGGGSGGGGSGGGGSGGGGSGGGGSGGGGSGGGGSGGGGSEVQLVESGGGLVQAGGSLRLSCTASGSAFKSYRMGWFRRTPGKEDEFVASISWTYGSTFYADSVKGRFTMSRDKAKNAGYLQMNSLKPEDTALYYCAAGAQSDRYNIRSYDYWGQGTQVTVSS
A) 10.34
